# protocol_text: NCI Yeast Anticancer Drug Screen. Data for the rad50 strain (AID 155);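 further: 0% = growth of vehicle-only cultures of the same strain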
# run_parameters: S. cerevisiae rad50 strain growth inhibition; at 33.0 µM; hits give high values
# Method: Growth inhibition of yeast strains with defined genetic alterations is measured as a screen for potential anti-cancer activity. Selected strains with alterations in DNA damage repair or cell cycle control were exposed to compounds and growth inhibition was measured relative to vehicle treated controls. The strain used in this assay is rad50
The panel holds about 79,000 compounds, 15% with a hit somewhere; the sample as a whole holds those more often. Active and inactive are the calls of the source. No stated cut-off is given here; in the data, active means growth inhibition above about 70%; inactive means the rest.
Here, each record is paired with measured growth inhibition data.
measured_endpoint: growth inhibition

• CC1=C(SCCO)C(=O)c2ccccc2C1=O = 37% (inactive)
• N/C(=N\OC(=O)NC(Cl)=C(Cl)Cl)c1cc(C(F)(F)F)cc(C(F)(F)F)c1 = 59% (inactive)
• CC(C)OC(=O)Oc1ccccc1OC(=O)OC(C)C = -1% (inactive)
• c1ccc2c(c1)NC(NC1Nc3ccccc3N1)N2 = 23% (inactive)
• CCCCCCCCCCNC(=O)OCC = 40% (inactive)
• Nc1nc(-c2cccnc2)cc(-c2cc(-c3cccnc3)nc(N)n2)n1 = 4% (inactive)
• Fc1ccc(NC(=S)SCc2ccc(Cl)c(Cl)c2)cc1F = -12% (inactive)
• CCc1ccc(NS(=O)(=O)c2ccccc2)c([N+](=O)[O-])c1 = 22% (inactive)
• Cc1ccc(N)c(S)c1 = 91% (active)
• CC(=O)OCC(=O)C1(O)CCC2C3CCC4CCCCC4(C)C3CCC21C (configuration not stated) = 53% (inactive)
• Cc1ccc(S/N=C\c2ccccc2O)cc1 = 12% (inactive)
• COC1=CC(=O)C(C2(OC(C)C)OC(=O)C(Cl)=C2Cl)=CC1=O (configuration not stated) = 99% (active)
• CCOC(=O)C1=C(C(=O)c2ccccc2)C(c2ccccc2[N+](=O)[O-])C(C(=O)c2ccccc2)=C(C(=O)OCC)N1 = 1% (inactive)
• COC(=O)c1cc(-c2ccc(C)cc2)[nH]c(=O)c1C#N = -4% (inactive)
• COc1ccc(OC)c2cc3ccccc3cc12 = 17% (inactive)
• O=C1c2cc([N+](=O)[O-])ccc2-c2cccc(F)c21 = 84% (active)
• S=C(S)NN1CCOCC1 = 23% (inactive)
• CC(=O)Nc1ccc(SC(C)=O)cc1 = 59% (inactive)
• COC(=O)C1=C(C)NC(C)=C(C(=O)OCCCN2CCC(c3ccccc3)(c3ccccc3)CC2)C1c1cccc([N+](=O)[O-])c1 (configuration not stated) = 95% (active)
• COc1ccc(/C=C/C(=O)C(C)(C)Br)cc1 = 93% (active)
• CCCCCCCCCCCCCCCCCCNC = 17% (inactive)
• O=[N+]([O-])c1cc2no[n+]([O-])c2cc1N1CCCCC1 = 96% (active)

---

Here, each record is paired with measured growth inhibition data.
# protocol_text: NCI Yeast Anticancer Drug Screen. Data for the cln2 rad14 strain (AID 165);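 further: 0% = growth equal to vehicle treated cultures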
# run_parameters: S. cerevisiae cln2 rad14 strain, at 5.0 µM (retest, dose inferred, filed as 0.5), hits give high values
This is part of a sample that, as a whole, favours compounds with a hit. Of some 79,000 tested, about 15% had one in any assay.
measured_endpoint: growth inhibition (%)

- O=Nc1c(NO)ccc2nn(-c3ccccc3)nc12: 37
- CCCCCCCCNC(=O)C1=C(C)NC(C)=C(C(=O)NCCCCCCCC)C1: 42
- CNC(=O)OCc1c(COC(=O)NC)c(-c2ccc(-c3ccccc3)cc2)n(C)c1C: 24
- Nc1ccc2c(c1)C(=O)c1cccc(N)c1C2=O: 8
- CN(N=O)N1C(=O)SCC(c2ccccc2)(c2ccccc2)C1=O: -26
- O=Nc1cccnc1N=O: 19
- O=[N+]([O-])c1ccc2nc3ccccc3cc2c1: -59
- CC(=O)Oc1cc(-c2cc(OC(C)=O)c(OC(C)=O)c3ccccc23)c2ccccc2c1OC(C)=O: 7
- Cc1ccc2[nH]c3c(C)c4cc[n+](C)cc4c(C)c3c2c1: 30
- Cc1cc(CO)c(O)c(CNCc2cc(C)cc(CO)c2O)c1: -17
- NNc1c(F)c(F)cc(F)c1F: 21
- CCOC(=O)C(NC(=O)c1ccccc1)(N1CCN(c2cc3c(cc2F)c(=O)c(C(=O)O)cn3C2CC2)CC1)C(F)(F)F (stereo not drawn): 41
- O=C1NC(=O)C2C3C=CC(C3)C12 (stereo not drawn): -55
- CO[C@H]1C[C@](C)(O)Cc2cc3c(c(O)c21)C(=O)c1c(O)cc2c(c1C3=O)O[C@@H]1O[C@@]2(C)[C@H](O)[C@@H](N(C)C)[C@@H]1O: 25
- c1ccc2c(c1)NC(NC1Nc3ccccc3N1)N2: 13
- C/C(=N\NC(=S)SCc1ccccc1)c1ccccn1: 3
- CN(C)Cc1cc(N=Nc2ccc(Cl)cc2)cc(CN(C)C)c1O: 39
- Cc1ccc2ccc(O)cc2c1: 4
- c1ccc2c(c1)c1ncccc1c1nccnc21: -60
- CSC(=S)N/N=C(\C)c1cccc(C)n1: 59
- O=[N+]([O-])C(=C(Sc1ccccc1)Sc1ccccc1)C(Cl)=C(Cl)Cl: 44
- CCN(CC)[P+](c1ccccc1O)(N(CC)CC)N(CC)CC: 8
- Nc1ccccc1CC(O)C(=O)O (stereo not drawn): -2
- Clc1ccccc1C1OC1c1ccccc1Cl (stereo not drawn): 37
- [O-][n+]1c2ccc(O)cc2nc2ccc(Br)cc21: 16
- O=C(c1ccc(Cl)cc1)C1OC12C(=O)Nc1ccccc12 (stereo not drawn): 100
- CCCS(=O)(=O)Nc1ccc(Nc2c3ccccc3nc3ccccc23)c(OC)c1: 34
- CCCCCCCCCCCCCCCCCCOCC(O)COP(=O)(O)OCC1OC(n2cc(F)c(=O)[nH]c2=O)CC1O (stereo not drawn): 1
